# Test system: HPPD polypeptides (wild-type SEQ ID NO:1 and mutants)
# assay.conditions: in the presence of Cmpd. 1, 15 μM inhibitor, high substrate concentration; kapp normalized to kapp without inhibitor
quantity: Residual activity (%)
The figure you give is taken to be in %; do not add the unit.

Inquiry: Recall and state the measured Residual activity for 30 (protein, mutant HPPD polypeptide) MADLYENPMGLMGFEFIEFASPTPGTLEPIFEIMGFTKVATHRSKNVHLYRQGEINLILNNEPNSIASYFAAEHGPSVCGMAFRVKDSQKAYNRALELGAQPIHIDTGPMELNLPAIKGIGGAPLYLIDRFGEGSSIYDIDFVYLEGVERNPVGAGLKVIDHLTHNVYRGRMVYWANFYEKLFNFREARYFDIKGEYTGLTSKAMSAPDGMIRIPLNEESSKGAGQIEEFLMQFNGEGIQHVAFLTDDLVKTWDALKKIGMRFMTAPSDSYYEMLEGRLPDHGEPVDQLQARGILLDGSSVEGDKRLLLQIFSETLMGPVFFEFIQRKGDDGFGPHSFKVLFESKERDQVRRGVLTAD .
Reply text: 39

Where do the numbers come from? From patent US10597674B2.
